- TESTED ON: MNK2 (Homo sapiens (Human), UniProt Q9HBH9)
- Sequence (Q9HBH9 whole entry): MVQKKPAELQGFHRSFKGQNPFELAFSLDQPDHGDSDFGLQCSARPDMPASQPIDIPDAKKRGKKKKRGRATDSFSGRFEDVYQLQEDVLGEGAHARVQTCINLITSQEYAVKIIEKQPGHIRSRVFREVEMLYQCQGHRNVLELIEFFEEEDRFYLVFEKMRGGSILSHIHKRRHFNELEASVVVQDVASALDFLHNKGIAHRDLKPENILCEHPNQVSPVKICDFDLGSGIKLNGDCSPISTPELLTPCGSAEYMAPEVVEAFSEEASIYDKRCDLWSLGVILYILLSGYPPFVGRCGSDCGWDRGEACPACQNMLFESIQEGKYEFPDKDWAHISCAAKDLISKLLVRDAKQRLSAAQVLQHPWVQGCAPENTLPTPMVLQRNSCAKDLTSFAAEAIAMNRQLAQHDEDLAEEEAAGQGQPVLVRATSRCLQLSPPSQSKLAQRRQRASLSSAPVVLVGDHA
pIC50: −log10 of the molar value.
ASSAY METRIC: pIC50

>>> df
                                smiles_code    test_value
0  Cc1cc(Nc2cc(NC3CNC3)ncn2)[n+]([O-])c2c1C(=O)NC21CCCCC1  7.00 to 8.00

The molecule COc1c(Nc2nc3c(s2)C(=O)NC32CCCCC2)ncnc1N[C@H]1CCOC1 on MNK2 (Homo sapiens (Human), UniProt Q9HBH9): pIC50 was < 6.00

The molecule CNC(=O)Nc1cc(Nc2nc3c(s2)C(=O)NC32CCCCC2)ncn1 on MNK2 (Homo sapiens (Human), UniProt Q9HBH9): pIC50 was 8.00 to 10.00

The molecule Cc1nc(Nc2ccccn2)cc(Nc2cc(C)c3c([n+]2[O-])C2(CCCCC2)NC3=O)n1 on MNK2 (Homo sapiens (Human), UniProt Q9HBH9): pIC50 was 6.00 to 7.00

The molecule COCCNc1cc(Nc2cc(C)c3c([n+]2[O-])C2(CCCCC2)NC3=O)ncn1 on MNK2 (Homo sapiens (Human), UniProt Q9HBH9): pIC50 was 7.00 to 8.00

The molecule CC(=O)N1CC(Nc2cc(Nc3cc(C)c4c([n+]3[O-])C3(CCCCC3)NC4=O)ncn2)C1 on MNK2 (Homo sapiens (Human), UniProt Q9HBH9): pIC50 was 7.00 to 8.00

The molecule O=C1NC2(CCCCC2)c2nc(Nc3cc(N[C@H]4CCCOC4)ncn3)sc21 on MNK2 (Homo sapiens (Human), UniProt Q9HBH9): pIC50 was 7.00 to 8.00
